System: Anopheles stephensi
TEST: Standard membrane feeding assay, Anopheles stephensi
Assay type: in vivo
MEASUREMENT CONDITIONS: Anopheles stephensi, 24 h, read-out: IC50 [95% CI]
pIC50: −log10 of the molar value.

COMPOUND	pIC50
O=C(CNC(=O)c1ccc(C2=NO[C@](c3cc(Cl)cc(C(F)(F)F)c3)(C(F)(F)F)C2)c2ccccc12)NCC(F)(F)F (racemic) [Afoxolaner, afoxolaner]	6.97

---

TEST: Hepatocyte stability assay, rat
Type: in vitro ADME
MEASUREMENT CONDITIONS: SD, rat, hepatocytes
Method: Example 7. In Vitro Metabolic Stability of Isoxazoline Compounds in cd-1 Mouse, sd Rat, Beagle Dog, Cynomolgus Monkey and Human Cryopreserved Hepatocytes […] The samples were analyzed by LC-MS/MS. Disappearance of the test compound was assessed based on peak area ratios of analyte/IS (no standard curve). Intrinsic clearance and t½ values were then calculated.

GIVEN SMILES	half-life at 1 μM, min
O=C(CNC(=O)c1ccc(C2=NO[C@@](c3cc(Cl)cc(Cl)c3)(C(F)(F)F)C2)c2ccccc12)NCC(F)(F)F	77

---

TEST: Further in vitro degradation assay, rat primary hepatocytes
MEASUREMENT CONDITIONS: cryopreserved hepatocytes

COMPOUND	hepatocyte CLint
Cc1cc(C2=NO[C@](c3cc(Cl)cc(Cl)c3)(C(F)(F)F)C2)ccc1C(=O)NCC(=O)NCC(F)(F)F [Fluralaner, fluralaner]	< 6.4 µL/min/1e6 cells

---

System: Anopheles stephensi
TEST: Standard membrane feeding assay, Anopheles stephensi
Assay type: in vivo
MEASUREMENT CONDITIONS: Anopheles stephensi; 24 hours after the blood meal; read-out: IC50 [95% CI]
MEASURED QUANTITY: IC50 (nM)

GIVEN SMILES	MEASURED QUANTITY	MEASURE UNIT	READOUT VALUE
Cc1cc(C2=NO[C@](c3cc(Cl)cc(Cl)c3)(C(F)(F)F)C2)ccc1C(=O)NCC(=O)NCC(F)(F)F	IC50	nM	56

---

Tested on: Anopheles gambiae (Kisumu)
TEST: Membrane feeding, Anopheles gambiae Kisumu strain
Assay type: in vivo
MEASUREMENT CONDITIONS: 24 h, read-out: IC50 [95% CI]

MOLECULE	IC50
O=C(CNC(=O)c1ccc(C2=NO[C@](c3cc(Cl)cc(C(F)(F)F)c3)(C(F)(F)F)C2)c2ccccc12)NCC(F)(F)F (racemic)	101 nM

---

TEST: Bidirectional permeability in Caco-2 cells
Format: in vitro ADME, human
MEASUREMENT CONDITIONS: human, Caco-2, pH 7.4; A→B; 2 μM, 2 hours; read-out: Caco2 A-B
MEASURED QUANTITY: Papp A→B at 2 h, 2 μM

COMPOUND	READOUT VALUE
O=C(CNC(=O)c1ccc(C2=NO[C@@](c3cc(Cl)cc(C(F)(F)F)c3)(C(F)(F)F)C2)c2ccccc12)NCC(F)(F)F [(S)-afoxolaner]	< 0.2 ×10⁻⁶ cm/s

---

TEST: Further in vitro degradation assay, human primary hepatocytes
MEASUREMENT CONDITIONS: human, hepatocytes

COMPOUND	COMPARATIVE SIGN	hepatocyte CLint / µL/min/1e6 cells
O=C(CNC(=O)c1ccc(C2=NO[C@](c3cc(Cl)cc(C(F)(F)F)c3)(C(F)(F)F)C2)c2ccccc12)NCC(F)(F)F (racemic) [Afoxolaner, afoxolaner]	<	6.4
CCOc1ccc2ccc(=O)oc2c1 [7-Ethoxycoumarin]	=	69.1
O=c1ccc2ccc(O)cc2o1 [7-Hydroxycoumarin]	=	94.1

---

TEST: Bidirectional permeability in Caco-2 cells
Format: in vitro ADME, human
MEASUREMENT CONDITIONS: human, Caco-2, pH 7.4
MEASURED QUANTITY: Papp B→A at 2 h, 2 μM

GIVEN SMILES	MEASURED QUANTITY	READOUT VALUE
O=C(CNC(=O)c1ccc(C2=NO[C@@](c3cc(Cl)cc(Cl)c3)(C(F)(F)F)C2)c2ccccc12)NCC(F)(F)F	Papp B→A at 2 h, 2 μM	0.56 ×10⁻⁶ cm/s

---

TEST: in vitro
MEASUREMENT CONDITIONS: rat, hepatocytes
MEASURED QUANTITY: hepatocyte CLint

COMPOUND	MEASURED QUANTITY	READOUT VALUE
CCOc1ccc2ccc(=O)oc2c1 [7-Ethoxycoumarin]	hepatocyte CLint	22.4 µL/min/1e6 cells

---

Reported half-life values for the following molecules.
TEST: Further in vitro degradation assay, rat primary hepatocytes
MEASUREMENT CONDITIONS: hepatocytes
Text: […]

MOLECULE	MEASURE UNIT	COMPARATIVE SIGN	half-life
O=C(CNC(=O)c1ccc(C2=NO[C@](c3cc(Cl)cc(C(F)(F)F)c3)(C(F)(F)F)C2)c2ccccc12)NCC(F)(F)F (racemic)	min	>	217
O=c1ccc2ccc(O)cc2o1 [7-Hydroxycoumarin]	min	=	4.8

---

TEST: Solubility at pH 6.8
Type: physicochemical
MEASUREMENT CONDITIONS: pH 6.8, aqueous buffer; read-out: Solubility (pH 6.8)
MEASURED QUANTITY: solubility

MOLECULE	MEASURED QUANTITY	READOUT VALUE
O=C(CNC(=O)c1ccc(C2=NO[C@](c3cc(Cl)cc(C(F)(F)F)c3)(C(F)(F)F)C2)c2ccccc12)NCC(F)(F)F (racemic) [Afoxolaner, afoxolaner]	solubility	< 1 µM
O=C(CNC(=O)c1ccc(C2=NO[C@@](c3cc(Cl)cc(C(F)(F)F)c3)(C(F)(F)F)C2)c2ccccc12)NCC(F)(F)F [(S)-afoxolaner]	solubility	< 1 µM

---

TEST: Further in vitro degradation assay, human primary hepatocytes
MEASUREMENT CONDITIONS: human, cryopreserved hepatocytes

GIVEN SMILES	half-life
Cc1cc(C2=NO[C@](c3cc(Cl)cc(Cl)c3)(C(F)(F)F)C2)ccc1C(=O)NCC(=O)NCC(F)(F)F	> 3.61 h

---

TEST: Further in vitro degradation assay, human primary hepatocytes
MEASUREMENT CONDITIONS: human, hepatocytes
MEASURED QUANTITY: half-life (min)

COMPOUND	MEASURE UNIT	COMPARATIVE SIGN	READOUT VALUE
O=c1ccc2ccc(O)cc2o1 [7-Hydroxycoumarin]	min	=	14.7
O=C(CNC(=O)c1ccc(C2=NO[C@](c3cc(Cl)cc(C(F)(F)F)c3)(C(F)(F)F)C2)c2ccccc12)NCC(F)(F)F (racemic) [Afoxolaner, afoxolaner]	min	>	217
CCOc1ccc2ccc(=O)oc2c1 [7-Ethoxycoumarin]	min	=	20.1

---

TEST: Hepatocyte stability assay, human
Type: in vitro ADME
MEASUREMENT CONDITIONS: human, hepatocytes

GIVEN SMILES	MEASURE UNIT	half-life at 1 μM
O=C(CNC(=O)c1ccc(C2=NO[C@@](c3cc(Cl)cc(Cl)c3)(C(F)(F)F)C2)c2ccccc12)NCC(F)(F)F	h	1.05

---

TEST: Hepatocyte stability assay, cynomolgus monkey
Assay type: in vitro ADME
MEASUREMENT CONDITIONS: cynomolgus monkey, hepatocytes

GIVEN SMILES	half-life at 1 μM (min)
O=C(CNC(=O)c1ccc(C2=NO[C@@](c3cc(Cl)cc(Cl)c3)(C(F)(F)F)C2)c2ccccc12)NCC(F)(F)F	42

---

Reported IC50 values for the following compounds.
SYSTEM TESTED: CYP 2D6 (Homo sapiens, UniProt P10635)
Construct: individual CYPs in a pool of human liver microsomes; from tissue; host or cells: pooled human liver microsomes
Sequence (P10635 whole entry): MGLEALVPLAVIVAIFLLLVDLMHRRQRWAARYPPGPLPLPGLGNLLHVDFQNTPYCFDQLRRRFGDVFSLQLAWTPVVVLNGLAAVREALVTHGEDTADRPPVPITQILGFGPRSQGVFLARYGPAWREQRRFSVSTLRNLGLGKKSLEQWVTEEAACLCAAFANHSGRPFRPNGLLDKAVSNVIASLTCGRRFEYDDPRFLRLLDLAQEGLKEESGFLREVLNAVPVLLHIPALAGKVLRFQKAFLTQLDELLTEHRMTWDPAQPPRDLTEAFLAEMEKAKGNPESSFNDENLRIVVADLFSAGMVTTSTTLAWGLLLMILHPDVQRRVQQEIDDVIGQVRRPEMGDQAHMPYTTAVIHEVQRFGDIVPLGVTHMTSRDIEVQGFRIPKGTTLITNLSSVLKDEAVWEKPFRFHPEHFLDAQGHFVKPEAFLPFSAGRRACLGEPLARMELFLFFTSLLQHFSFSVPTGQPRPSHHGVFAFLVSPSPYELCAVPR
TEST: Reversible CYP inhibition in human liver microsomes, CYP 2D6
Format: in vitro ADME
MEASUREMENT CONDITIONS: bufuralol, read-out: Cyp microsome IC50, 2D6
MEASURED QUANTITY: IC50 (µM)

COMPOUND	MEASURE UNIT	COMPARATIVE SIGN	READOUT VALUE
O=C(CNC(=O)c1ccc(C2=NO[C@@](c3cc(Cl)cc(C(F)(F)F)c3)(C(F)(F)F)C2)c2ccccc12)NCC(F)(F)F [(S)-afoxolaner]	µM	=	19
O=C(CNC(=O)c1ccc(C2=NO[C@@](c3cc(Cl)cc(Cl)c3)(C(F)(F)F)C2)c2ccccc12)NCC(F)(F)F	µM	=	17.2
O=C(CNC(=O)c1ccc(C2=NO[C@](c3cc(Cl)cc(C(F)(F)F)c3)(C(F)(F)F)C2)c2ccccc12)NCC(F)(F)F (racemic)	µM	>	50

---

TEST: in vitro
MEASUREMENT CONDITIONS: dog, hepatocytes
Text: […]
MEASURED QUANTITY: hepatocyte CLint (µL/min/1e6 cells)

MOLECULE	READOUT VALUE
CCOc1ccc2ccc(=O)oc2c1 [7-Ethoxycoumarin]	99.3

---

Reported pIC50 values for the following compounds.
SYSTEM TESTED: CYP 1A2 (Homo sapiens)
Construct: individual CYPs in a pool of human liver microsomes; from tissue; host or cells: pooled human liver microsomes
Sequence (P05177 whole entry): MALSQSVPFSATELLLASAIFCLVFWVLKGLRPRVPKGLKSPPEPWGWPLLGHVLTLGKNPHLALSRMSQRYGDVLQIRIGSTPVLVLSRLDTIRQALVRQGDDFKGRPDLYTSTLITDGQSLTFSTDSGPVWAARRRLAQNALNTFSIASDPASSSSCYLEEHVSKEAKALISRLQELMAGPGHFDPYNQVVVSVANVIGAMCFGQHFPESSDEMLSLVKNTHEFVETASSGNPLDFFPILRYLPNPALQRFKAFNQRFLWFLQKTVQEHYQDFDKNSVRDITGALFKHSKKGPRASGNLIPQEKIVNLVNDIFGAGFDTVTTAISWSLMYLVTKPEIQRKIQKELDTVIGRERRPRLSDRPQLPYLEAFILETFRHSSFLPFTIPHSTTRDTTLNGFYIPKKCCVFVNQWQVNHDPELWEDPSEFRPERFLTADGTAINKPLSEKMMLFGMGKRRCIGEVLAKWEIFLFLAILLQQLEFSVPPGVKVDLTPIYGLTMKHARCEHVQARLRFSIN
TEST: Reversible CYP inhibition in human liver microsomes, CYP 1A2
Assay type: in vitro ADME
pIC50: −log10 of the molar value.

COMPOUND	pIC50
O=C(CNC(=O)c1ccc(C2=NO[C@](c3cc(Cl)cc(C(F)(F)F)c3)(C(F)(F)F)C2)c2ccccc12)NCC(F)(F)F (racemic)	< 4.30
O=C(CNC(=O)c1ccc(C2=NO[C@@](c3cc(Cl)cc(C(F)(F)F)c3)(C(F)(F)F)C2)c2ccccc12)NCC(F)(F)F [(S)-afoxolaner]	< 4.30
